# test protocol: Aggregation after dialysis of purified polypeptide solution
# Assay type: physicochemical
# Design: key: G: The formation of an aggregate was not observed.; A: The formation of particles having a particle size of about 100 nm was observed.; B: The formation of an aggregation of particles having a particle size of equal to or greater than 1 mm was visually observed
# Description: For RCP-1 to RCP-11, each of the purified polypeptide solutions was dialyzed using Slide-A-Lizer (3.5 K MWCO.). […] The concentration of the end-product of dialysis was calculated from the absorbence at 280 nm by using NanoDrop (Thermo Fisher Scientific Inc.). Whether or not aggregation was occurred was evaluated based on the scale of A, and B as shown below. […]

molecule	Aggregation
RCP-6: recombinant polypeptide for culture, SEQ ID NO: 20; vitronectin positions 1-55, 269-459, C274S (protein, Vitronectin-derived Recombinant Protein (RCP-6), vitronectin positions 1-55, 269-459, C274S) MDQESCKGRCTEGFNVDKKCQCDELCSYYQSCCTDYTAECKPQVTRGDVFTMPEDESQEESEGSSLSAVFEHFAMMQRDSWEDIFELLFWGRTSAGTRQPQFISRDWHGVPGQVDAAMAGRIYISGMAPRPSLAKKQRFRHRNRKGYRSQRGHSRGRNQNSRRPSRATWLSLFSSEESNLGANNYDDYRMDWLVPATSEPIQSVFFFSGDKYYRVNLRTRRVDTVDPPYPRSIAQYWLGSPAPGHL	A
RCP-5: recombinant polypeptide for culture, SEQ ID NO: 19; vitronectin positions 1-55, 302-341, 342-373 (protein, Vitronectin-derived Recombinant Protein (RCP-5)) MDQESCKGRCTEGFNVDKKCQCDELCSYYQSCCTDYTAECKPQVTRGDVFTMPEDEFWGRTSAGTRQPQFISRDWHGVPGQVDAAMAGRIYISGMAPRPSLAKKQRFRHRNRKGYRSQRGHSRGRNQN	G
RCP-7: recombinant polypeptide for culture, SEQ ID NO: 21; vitronectin positions 1-55, 269-373, C274S (protein, Vitronectin-derived Recombinant Protein (RCP-7), vitronectin positions 1-55, 269-373, C274S) MDQESCKGRCTEGFNVDKKCQCDELCSYYQSCCTDYTAECKPQVTRGDVFTMPEDESQEESEGSSLSAVFEHFAMMQRDSWEDIFELLFWGRTSAGTRQPQFISRDWHGVPGQVDAAMAGRIYISGMAPRPSLAKKQRFRHRNRKGYRSQRGHSRGRNQN	A
